Data credit: patent EP0111455A2

Tested on: isolierten, elektrisch gereizten, linken Vorhöfen des Meerschweinchens
Assay: positive inotropic effect on isolated, electrically stimulated left atria (method after J.V. Levy)
Assay type: cell-based, Meerschweinchen
Conditions: Cavia porcellus; extent of positive inotropic effect in % of the maximal increase of contraction force by Isoproterenol; read-out: Ausmass der Wirkung (% von ISOmax)
One threshold, 70%, splits the recorded Emax values: lower ones are True, equal or higher ones are False.

Answer whether the compound CCOC(=O)C1=C(C)NC2=C(C(=O)OC2)C1c1ccc(OC(F)F)cc1 (centres unmarked) [-COOC2H5; 4-Difluormethoxy-phenyl] has Emax strictly less than 70%
True

Answer whether the compound CCOC(=O)C1=C(C)NC2=C(C(=O)OC2)C1c1ccccc1OC(F)F (centres unmarked) [-COOC2H5; 2-Difluormethoxy-phenyl] has Emax strictly less than 70%
True

Answer whether the compound CCOC(=O)C1=C(C)NC2=C(C(=O)OC2)C1c1ccccc1OC(F)(F)C(F)Cl (centres unmarked) has Emax strictly less than 70%
False

Answer whether the compound CCOC(=O)C1=C(C)NC2=C(C(=O)OC2)C1c1ccccc1OCCSC (centres unmarked) has Emax strictly less than 70%
False

Answer whether the compound COCCOC(=O)C1=C(C)NC2=C(C(=O)OC2)C1c1ccccc1OC(F)F (centres unmarked) [-COOC2H4OCH3; 2-Difluormethoxy-phenyl] has Emax strictly less than 70%
False
